- experimental.system: PcrV of P. aeruginosa strain PA103 (on TTSS-induced bacteria) (Pseudomonas aeruginosa strain PA103)
- test: cell-based or functional assay
readout: % inhibition, P3X63 cytotoxicity assay, MOI 3

binder | reported.measurement
Nanobody 14B10 (VHH) VHH: EVQLVESGGGLVQPGGSLRLSCAASGRIFSINNMGWYHQAPGKQRELVATITMNGITTYADSVKGRFTISRDNAKNTVYLQMNSLKPEDTAVYYCSCWVRSSGGDPYRDYWGQGTQVTVSS | > 70%
